- Target or test system: Receptor-type tyrosine-protein kinase FLT3 (Homo sapiens, UniProt P36888)
- Sequence (P36888 whole entry): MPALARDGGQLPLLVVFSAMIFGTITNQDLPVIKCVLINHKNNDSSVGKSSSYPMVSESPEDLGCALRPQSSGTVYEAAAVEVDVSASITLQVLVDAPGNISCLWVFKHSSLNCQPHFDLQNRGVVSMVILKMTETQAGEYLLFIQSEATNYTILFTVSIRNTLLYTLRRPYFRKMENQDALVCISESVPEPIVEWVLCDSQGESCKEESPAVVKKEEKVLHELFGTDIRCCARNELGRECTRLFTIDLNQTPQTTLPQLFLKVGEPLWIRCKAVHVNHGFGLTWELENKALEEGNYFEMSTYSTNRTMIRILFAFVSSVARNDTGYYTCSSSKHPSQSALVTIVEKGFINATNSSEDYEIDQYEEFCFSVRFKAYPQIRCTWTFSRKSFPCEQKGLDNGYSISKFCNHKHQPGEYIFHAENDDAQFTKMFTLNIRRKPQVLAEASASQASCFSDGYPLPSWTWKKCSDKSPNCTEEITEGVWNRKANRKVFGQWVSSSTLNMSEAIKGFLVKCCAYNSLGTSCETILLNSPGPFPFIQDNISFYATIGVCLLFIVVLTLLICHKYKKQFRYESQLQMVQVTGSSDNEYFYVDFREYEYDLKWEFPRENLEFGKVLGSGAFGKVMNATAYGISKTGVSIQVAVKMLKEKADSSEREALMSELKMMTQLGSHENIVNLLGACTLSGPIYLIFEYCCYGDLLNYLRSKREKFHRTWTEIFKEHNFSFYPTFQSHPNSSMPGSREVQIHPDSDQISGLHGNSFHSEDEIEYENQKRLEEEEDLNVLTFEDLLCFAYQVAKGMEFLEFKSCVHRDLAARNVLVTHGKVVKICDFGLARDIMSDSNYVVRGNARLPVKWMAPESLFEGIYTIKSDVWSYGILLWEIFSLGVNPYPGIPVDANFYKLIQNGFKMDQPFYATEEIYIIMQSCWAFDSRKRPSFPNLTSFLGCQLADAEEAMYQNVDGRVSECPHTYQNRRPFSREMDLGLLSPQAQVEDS
We begin with IC50 values for Receptor-type tyrosine-protein kinase FLT3 (Homo sapiens, UniProt P36888), as collected from the published literature.

Mol	IC50, nM
Cc1cc(N2CCOCC2)ccc1NC(=O)c1cnn2ccc(N[C@@H]3CCCNC3)nc12	1.4
Cc1cnc2nc1-c1cccc(c1)COC/C=C/COCc1cc(ccc1OCCN1CCCC1)N2	19
Nc1noc2cccc(-c3ccc(NC(=O)Nc4ccccc4OC(F)(F)F)cc3)c12	60
CC(C)S(=O)(=O)Nc1cccc(-c2cc(NC(=O)c3ccc(N4CCN(C)CC4)cc3)[nH]n2)c1	160

* * *

We begin with IC50 values for UniProtKB P36888, as collected from the published literature.

Mol	IC50
O=C(NCc1ccccn1)c1ccc(-n2cc(-c3ccncc3)cn2)cc1	< 5000 nM
C=CC(=O)NCCOCCNC(=O)CCN1CCC(c2cc(OC(C)C)c(Nc3ncc(Cl)c(Nc4ccccc4S(=O)(=O)C(C)C)n3)cc2C)CC1	875 nM
C=CC(=O)N1CCC[C@H]1C(=O)Nc1cc2c(Nc3ccc(F)c(Cl)c3F)ncnc2cc1OCCOC	> 10000 nM

* * *

We begin with IC50 values for Receptor-type tyrosine-protein kinase FLT3 (Homo sapiens), as collected from the published literature.
Readout name: IC50 (nM)

Mol	Readout name	Unit spec	Relation	Quantitative result
CCc1cccc(CC)c1NC(=O)N1Cc2n[nH]c(NC(=O)c3ccc(N4CCN(C)CC4)cc3)c2C1	IC50	nM	=	390
COc1nc(Nc2ncc3c4ccncc4n([C@H]4CC[C@H](C)CC4)c3n2)ccc1N1CCC(N(C)C)CC1	IC50	nM	=	0.2
CN1CCC(CNc2cccc3ccc(-c4nnc5c6c(cnn45)N(C)CCO6)nc23)CC1	IC50	nM	>	10000
CC(C)n1cc(C(=O)Nc2cc(F)c(-c3c[nH]c4ncnc(N)c34)cc2F)c(=O)c(-c2ccc(F)cc2)c1	IC50	nM	>	1000
COc1cc2c(Oc3ccc(NC(=O)NS(=O)(=O)Cc4ccc(F)cc4)cc3F)ccnc2cc1OCCCN1CCCC1	IC50	nM	=	400
C=CC(=O)Nc1cccc(-n2c(=O)cnc3cnc(Nc4ccc(N(CC)CC)cc4)nc32)c1	IC50	nM	=	1060
C[C@H]1CC[C@H](n2c3cnccc3c3cnc(Nc4ccc(N5CCNCC5)nc4)nc32)CC1	IC50	nM	=	0.3

* * *

We begin with log10 of IC50 values for Receptor-type tyrosine-protein kinase FLT3 (Homo sapiens, UniProt P36888), as collected from the published literature.
- Target or test system: Receptor-type tyrosine-protein kinase FLT3 (Homo sapiens, UniProt P36888)
- Sequence (P36888 whole entry): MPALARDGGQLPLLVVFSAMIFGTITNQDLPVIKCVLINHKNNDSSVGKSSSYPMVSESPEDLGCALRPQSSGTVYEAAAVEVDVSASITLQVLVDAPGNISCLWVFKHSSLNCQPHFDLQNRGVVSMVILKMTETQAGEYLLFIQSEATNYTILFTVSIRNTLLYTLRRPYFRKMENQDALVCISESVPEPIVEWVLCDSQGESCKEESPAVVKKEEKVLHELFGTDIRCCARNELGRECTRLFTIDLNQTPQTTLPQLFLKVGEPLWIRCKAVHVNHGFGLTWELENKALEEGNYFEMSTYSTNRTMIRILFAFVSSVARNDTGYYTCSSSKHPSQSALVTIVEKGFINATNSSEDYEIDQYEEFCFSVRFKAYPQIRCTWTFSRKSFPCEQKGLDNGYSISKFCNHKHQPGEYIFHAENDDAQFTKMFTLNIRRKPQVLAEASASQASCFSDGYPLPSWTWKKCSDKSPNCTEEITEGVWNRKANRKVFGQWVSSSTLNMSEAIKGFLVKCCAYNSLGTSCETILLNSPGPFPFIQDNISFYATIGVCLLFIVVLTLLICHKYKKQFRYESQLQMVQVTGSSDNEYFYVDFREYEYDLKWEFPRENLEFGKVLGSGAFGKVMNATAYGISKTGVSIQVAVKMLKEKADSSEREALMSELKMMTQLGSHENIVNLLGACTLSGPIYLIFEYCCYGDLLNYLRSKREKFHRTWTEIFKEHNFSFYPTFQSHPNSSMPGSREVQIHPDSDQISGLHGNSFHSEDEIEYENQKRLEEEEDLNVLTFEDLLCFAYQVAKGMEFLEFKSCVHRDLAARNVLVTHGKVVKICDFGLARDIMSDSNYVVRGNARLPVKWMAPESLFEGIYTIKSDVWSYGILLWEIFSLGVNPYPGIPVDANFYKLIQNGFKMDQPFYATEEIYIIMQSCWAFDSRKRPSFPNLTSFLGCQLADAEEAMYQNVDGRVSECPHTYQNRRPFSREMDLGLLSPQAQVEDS
Readout name: log10 of IC50 (log10 of the value in nM)

Mol	Target or test system	log10 of IC50
CONC(=O)c1cn(-c2ccc3c(c2)CCC3)c2nc(Nc3ccc(C4CCN(CC(=O)O)CC4)cc3)ncc2c1=O	Receptor-type tyrosine-protein kinase FLT3 (Homo sapiens, UniProt P36888)	1.61
CNc1ncc2c(-c3ccc(N4CCNCC4)nc3)nn(CC3CCCC3)c2n1	Receptor-type tyrosine-protein kinase FLT3 (Homo sapiens, UniProt P36888)	1.30
Cc1csc2ncnc(Nc3c[nH]nc3C(=O)Nc3ccc(CN4CCN(C)CC4)cc3)c12	Receptor-type tyrosine-protein kinase FLT3 (Homo sapiens, UniProt P36888)	-0.78
Clc1ccc(-n2nncc2-c2ccncc2)cc1	Receptor-type tyrosine-protein kinase FLT3 (Homo sapiens, UniProt P36888)	3.23
O=S(=O)(NCCNc1nccc(-c2c(-c3cccc(O)c3)nc3sccn23)n1)c1ccc(F)cc1	Receptor-type tyrosine-protein kinase FLT3 (Homo sapiens, UniProt P36888)	3.30
Cc1ccc(F)c(NC(=O)Nc2ccc(C3=Nc4c(N)ncnc4NCC3)cc2)c1	Receptor-type tyrosine-protein kinase FLT3 (Homo sapiens, UniProt P36888)	1.11
CCCNCCC(=O)Nc1c[nH]c(/C=C2\C(=O)Nc3ccc(F)cc32)c1C	Receptor-type tyrosine-protein kinase FLT3 (Homo sapiens, UniProt P36888)	0.23

* * *

- Target or test system: Receptor-type tyrosine-protein kinase FLT3 (Homo sapiens)
- Sequence (P36888 whole entry): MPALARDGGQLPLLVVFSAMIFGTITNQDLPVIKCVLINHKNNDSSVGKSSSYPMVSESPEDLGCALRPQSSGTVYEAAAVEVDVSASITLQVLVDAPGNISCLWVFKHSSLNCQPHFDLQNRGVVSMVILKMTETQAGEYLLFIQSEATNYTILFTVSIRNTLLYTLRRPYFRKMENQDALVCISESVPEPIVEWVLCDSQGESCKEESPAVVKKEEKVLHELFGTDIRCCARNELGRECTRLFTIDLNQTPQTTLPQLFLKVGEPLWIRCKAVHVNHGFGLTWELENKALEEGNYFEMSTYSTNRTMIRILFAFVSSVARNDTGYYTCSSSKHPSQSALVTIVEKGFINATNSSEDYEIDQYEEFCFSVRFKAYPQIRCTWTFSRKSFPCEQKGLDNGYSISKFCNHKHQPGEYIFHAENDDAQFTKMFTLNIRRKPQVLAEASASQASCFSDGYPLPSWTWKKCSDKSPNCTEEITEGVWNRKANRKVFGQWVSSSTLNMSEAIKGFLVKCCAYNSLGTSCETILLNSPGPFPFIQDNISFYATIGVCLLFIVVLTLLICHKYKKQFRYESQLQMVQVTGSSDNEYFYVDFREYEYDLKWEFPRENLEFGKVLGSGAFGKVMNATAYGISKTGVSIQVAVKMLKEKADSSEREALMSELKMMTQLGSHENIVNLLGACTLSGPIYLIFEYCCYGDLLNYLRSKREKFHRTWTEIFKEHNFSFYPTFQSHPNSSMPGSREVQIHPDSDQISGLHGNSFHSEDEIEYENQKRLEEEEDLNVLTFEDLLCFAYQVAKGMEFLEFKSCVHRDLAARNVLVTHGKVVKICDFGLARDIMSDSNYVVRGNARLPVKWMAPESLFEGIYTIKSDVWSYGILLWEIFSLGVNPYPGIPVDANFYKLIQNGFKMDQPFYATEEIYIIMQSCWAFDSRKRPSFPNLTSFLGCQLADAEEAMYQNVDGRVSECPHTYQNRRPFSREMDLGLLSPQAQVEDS
We begin with IC50 values for Receptor-type tyrosine-protein kinase FLT3 (Homo sapiens), as collected from the published literature.
Readout name: IC50

Mol	Result
CN1CCN(c2ccc3[nH]c(-c4c(N)c5ccsc5[nH]c4=O)nc3c2)CC1	≤ 500 nM
CN1CCN(Cc2ccc(NC(=O)c3n[nH]cc3Nc3ncnc4sccc34)cc2)CC1	0.438 to 0.6 nM
O=c1oc2c(O)c(O)cc3c(=O)oc4c(O)c(O)cc1c4c23	> 40000 nM
Clc1ccccc1Nc1nc2c(-c3nnc[nH]3)cccc2c2sccc12	> 10000 nM
